- Species on record: Homo sapiens
- method_description: Selectivity index, ratio of Ki for recombinant human furin expressed in drosophila S2 cells to Ki for recombinant human PACE4 expressed in drosophila S2 cells
- Format: cell-based
Peptide text beside a SMILES is read from it. * marks the point of attachment. NH(4-amidinobenzyl) = N=C(N)c1ccc(CN*)cc1
Give Ratio Ki for every item shown.
Numbers only.

1. CC(=O)N[C@@H](Cc1ccccc1)C(=O)N[C@@H](CC(C)C)C(=O)N[C@@H](CC(C)C)C(=O)N[C@@H](CC(C)C)C(=O)N[C@@H](CCCNC(=N)N)C(=O)N[C@H](C(=O)N[C@@H](CCCCN)C(=O)NCc1ccc(C(=N)N)cc1)C(C)C (Ac-FLLLRVK-{NH(4-amidinobenzyl)}): 1
2. CC(=O)N[C@@H](CC(C)C)C(=O)N[C@@H](CC(C)C)C(=O)N[C@@H](CC(C)C)C(=O)N[C@@H](CCCCN)C(=O)N[C@@H](CCCNC(=N)N)C(=O)N[C@H](C(=O)N[C@@H](CCCCN)C(=O)NCc1ccc(C(=N)N)cc1)C(C)C (Ac-LLLKRVK-{NH(4-amidinobenzyl)}): 0.5
3. CC(=O)N[C@@H](CC(C)C)C(=O)N[C@@H](CC(C)C)C(=O)N[C@@H](CCC(N)=O)C(=O)N[C@@H](CC(C)C)C(=O)N[C@@H](CCCNC(=N)N)C(=O)N[C@H](C(=O)N[C@@H](CCCCN)C(=O)NCc1ccc(C(=N)N)cc1)C(C)C (Ac-LLQLRVK-{NH(4-amidinobenzyl)}): 1.2
4. CC(=O)N[C@@H](CC(C)C)C(=O)N[C@@H](CC(C)C)C(=O)N[C@@H](Cc1ccc(O)cc1)C(=O)N[C@@H](CC(C)C)C(=O)N[C@@H](CCCNC(=N)N)C(=O)N[C@H](C(=O)N[C@@H](CCCCN)C(=O)NCc1ccc(C(=N)N)cc1)C(C)C (Ac-LLYLRVK-{NH(4-amidinobenzyl)}): 1.2

Next item in the queue.
// query # input molecule: CC(=O)N[C@@H](CC(C)C)C(=O)N[C@@H](CC(C)C)C(=O)NCC(=O)N[C@@H](CC(C)C)C(=O)N[C@@H](CCCNC(=N)N)C(=O)N[C@H](C(=O)N[C@@H](CCCCN)C(=O)NCc1ccc(C(=N)N)cc1)C(C)C (Ac-LLGLRVK-{NH(4-amidinobenzyl)}) ; wanted: its Ratio Ki
// result 0.8

* * *

- tested_system: Furin (Homo sapiens, UniProt P09958)
- Sequence (P09958 whole entry): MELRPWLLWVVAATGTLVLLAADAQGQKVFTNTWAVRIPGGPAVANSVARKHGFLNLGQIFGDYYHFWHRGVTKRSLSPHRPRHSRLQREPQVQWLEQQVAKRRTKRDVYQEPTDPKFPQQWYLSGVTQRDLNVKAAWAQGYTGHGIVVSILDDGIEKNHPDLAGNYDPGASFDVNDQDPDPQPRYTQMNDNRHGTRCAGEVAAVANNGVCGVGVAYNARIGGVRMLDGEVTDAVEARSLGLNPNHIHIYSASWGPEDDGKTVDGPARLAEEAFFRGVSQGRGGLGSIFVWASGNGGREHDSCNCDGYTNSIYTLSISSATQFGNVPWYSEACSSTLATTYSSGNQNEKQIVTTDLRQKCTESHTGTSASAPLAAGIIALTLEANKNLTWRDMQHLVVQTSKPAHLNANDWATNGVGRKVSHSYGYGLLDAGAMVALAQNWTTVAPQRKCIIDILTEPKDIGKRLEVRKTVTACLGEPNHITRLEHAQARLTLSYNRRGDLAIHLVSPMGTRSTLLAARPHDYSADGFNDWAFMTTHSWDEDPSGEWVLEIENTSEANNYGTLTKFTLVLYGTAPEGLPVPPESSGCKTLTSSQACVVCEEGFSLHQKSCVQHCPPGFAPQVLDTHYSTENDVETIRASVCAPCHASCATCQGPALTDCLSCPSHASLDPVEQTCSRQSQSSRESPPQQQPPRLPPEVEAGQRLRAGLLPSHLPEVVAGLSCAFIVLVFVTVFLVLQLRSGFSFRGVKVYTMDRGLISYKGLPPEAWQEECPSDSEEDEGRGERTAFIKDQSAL
- method_description: Inhibition of recombinant human furin expressed in drosophila S2 cells using pyrGlu-Arg-Thr-Lys-Arg-7-amido-4-methylcoumarin as substrate after 60 mins by spectrofluorometry method
Peptide text beside a SMILES is read from it. * marks the point of attachment. NH(4-amidinobenzyl) = N=C(N)c1ccc(CN*)cc1
Can you tell me pKi for the items I'm about to list?
One number for each entry, as −log10 of the molar value.

Look over these answered cases.
1) CSCC[C@H](NC(C)=O)C(=O)N[C@@H](CC(C)C)C(=O)N[C@@H](CC(C)C)C(=O)N[C@@H](CC(C)C)C(=O)N[C@@H](CCCNC(=N)N)C(=O)N[C@H](C(=O)N[C@@H](CCCCN)C(=O)NCc1ccc(C(=N)N)cc1)C(C)C (Ac-MLLLRVK-{NH(4-amidinobenzyl)}): 8.22
2) CC(=O)N[C@@H](CC(C)C)C(=O)N[C@@H](Cc1c[nH]c2ccccc12)C(=O)N[C@@H](CC(C)C)C(=O)N[C@@H](CC(C)C)C(=O)N[C@@H](CCCNC(=N)N)C(=O)N[C@H](C(=O)N[C@@H](CCCCN)C(=O)NCc1ccc(C(=N)N)cc1)C(C)C (Ac-LWLLRVK-{NH(4-amidinobenzyl)}): 7.89

// query Recorded pKi for CC(=O)N[C@@H](CC(C)C)C(=O)N[C@@H](CC(C)C)C(=O)NCC(=O)N[C@@H](CC(C)C)C(=O)N[C@@H](CCCNC(=N)N)C(=O)N[C@H](C(=O)N[C@@H](CCCCN)C(=O)NCc1ccc(C(=N)N)cc1)C(C)C (Ac-LLGLRVK-{NH(4-amidinobenzyl)}) with Furin (Homo sapiens, UniProt P09958), please?
// result 7.78

Each recorded value in this set is attributed to ChEMBL document CHEMBL4049407.
